system: RXF 393 renal; assay: NCI tumour cell line growth inhibition, 48 h
measure.name: GI50

compound: O=c1nc2[nH]c3c(-c4n[nH]c(=O)[nH]c4=O)cccc3c2n[nH]1
GI50: > 100 µM
--
compound: COc1cc2cc3c(c(O)c2c(O)c1-c1c(OC)cc2cc4c(c(O)c2c1O)C(=O)O[C@H](C)C4)C(=O)O[C@H](C)C3
GI50: 24.4 µM
--
compound: CCCCCCCCCCCCOC1C(C(CC(=O)N2CCN(Cc3ccc4c(c3)OCO4)CC2)NS(=O)(=O)c2cc(Cl)cc(Cl)c2)OC2OC(C)(C)OC21 (centres undefined)
GI50: 6.43 µM

Now consider a different compound.
Input line: # return recorded GI50 for input Fc1ccc(-c2nn3c(COc4ccc(Cl)cc4)nnc3s2)cc1Oc1ccccc1
Output line: 26.3 µM

---

Provide the recorded TGI for the entries that follow.
test system: NCI-H23 lung; experiment: NCI tumour cell line growth inhibition, 48 h
One number for each entry, in µM.

smiles.structure: O=C1C=C/C(=C/[C@H]2SSC=C[C@]23C=CC(=O)C3)C1
test.target: NCI-H23 lung
TGI [µM]: 44.1

Next item in the queue.
Input line: Look up TGI of C=CCNC1=C2C[C@@H](C)C[C@@H](OC)[C@H](OC(=O)CCN(C)C)[C@H](C)/C=C(\C)[C@@H](OC(N)=O)[C@H](OC)/C=C\C=C(/C)C(=O)NC(=CC1=O)C2=O and report it.
Output line: 17.1

---

tested on: BT-549 breast; test: NCI tumour cell line growth inhibition, 48 h
measure.name: TGI

Examples with their reported TGI follow.
compound: NC(N)=N/N=C(/c1ccccc1)c1ccccc1F
measure.name: TGI
reported.measurement: 23.6 µM
//
compound: c1ccc(Nc2nnc(CCCCCCCCc3nnc(Nc4ccccc4)o3)o2)cc1
measure.name: TGI
reported.measurement: > 100 µM
//
compound: O=c1[nH]c2ccc([N+](=O)[O-])c(Cl)c2c2ccccc12
measure.name: TGI
reported.measurement: 21.2 µM

I would be grateful if you could provide TGI for each of the following entries.
1. CCCCCCCc1ccc(-c2nnc(N=Nc3ccc(OCCCCC)cc3)s2)s1
2. CC(CC=O)Nc1nn2c(=O)c3ccccc3nc2s1 (stereo unspecified)
3. COc1cc2c(cc1OC)C(=O)N(c1ccc(OCCN3CCCC3)cc1)C2=O

Output line:
["> 100 µM", "> 100 µM", "> 100 µM"]

---

system: M19-MEL melanoma; assay: NCI tumour cell line growth inhibition, 48 h
measure.name: TGI

// below: answered compounds
compound: N#CC(NNC(=O)c1ccccc1O)c1c(O)ccc2ccccc12 (stereo not drawn)
TGI: 9.62 µM
//
compound: COc1cc([C@@H]2Oc3cc4oc(-c5ccccc5)cc(=O)c4c(O)c3O[C@H]2OC)ccc1O
TGI: 24 µM
//
compound: O=C1CNN=C(Cn2nc(-c3ccccc3)c3ccccc3c2=O)N1
TGI: > 100 µM
//
compound: C/C(CC(=O)Nc1cccc([N+](=O)[O-])c1)=N\NC(=O)C[n+]1ccccc1
TGI: > 100 µM
//
compound: NNC(=O)N/N=C1\CN(c2ccc(Cl)cc2Cl)C(=O)C(=O)C1c1nc2ccccc2o1 (stereo not drawn)
TGI: > 100 µM

Look at each compound and report its TGI.
1. Cc1nc(-n2nc(-c3ccccc3)cc2-c2ccccc2)sc1C(=O)/C=C/c1ccccc1
2. Cn1c(NC(=O)NC23CC4CC(CC(C4)C2)C3)nc2ccccc21
3. [Cl-].[Gd+3].[O-]/N=C(\c1ccccc1)c1ccccn1.[O-]/N=C(\c1ccccc1)c1ccccn1.[O-]/N=C(\c1ccccc1)c1ccccn1
4. CN(C)c1ccc(N=C2C=CC(=C(C#N)C#N)c3ccccc32)cc1

Output line:
["> 100 µM", "> 100 µM", "> 100 µM", "5.8 µM"]

Hi! Can you tell me TGI for each of these compounds?
1. CC(C)=CC(=O)c1c(C(=O)O)nc2ccccc2[n+]1[O-]
2. C(=C\c1c2oc(-c3ccccc3)cc(-c3ccccc3)c-2c2ccccc12)/C=C1\c2ccccc2-c2c(-c3ccccc3)cc(-c3ccccc3)[o+]c21
3. c1ccc2c3c([nH]c2c1)C1C2CCCCN2C(c2ccncc2)N1CC3 (stereo not drawn)
4. O=C(CC1=Nc2nnc(-c3nnc4n3C(=O)C(CC(=O)C3CC3)=N4)n2C1=O)C1CC1

Output line:
> 100 µM
> 100 µM
> 100 µM
> 100 µM
